# Test system: MALME-3M melanoma
# ASSAY METHOD TEXT: NCI tumour cell line growth inhibition, 48 h; in the data active = GI50 below about 0.43 µM; inactive = the rest
Outcomes: 1 (active), 0 (inactive)

[[record]]
molecule = "O=C(Nc1ccc(-n2cc(-c3ccncc3)c(-c3ccc(O)c(Cl)c3)n2)cc1)Nc1cc(C(F)(F)F)cc(C(F)(F)F)c1"
assigned_category = 0

[[record]]
molecule = "CCCCCCCCCCCCCC(=O)O[C@H]1CC[C@H](NC(=O)[C@H](OC)[C@H](O)[C@@H](O)[C@H](O)/C=C/C(C)C)C(=O)N(C)C1"
assigned_category = 1

[[record]]
molecule = "NC(=O)c1nc(-c2c(F)cccc2Cl)oc1Nc1ccc(C(=O)N2CCOCC2)cc1"
assigned_category = 0

[[record]]
molecule = "O=C1c2ccccc2-c2c1c1ccccc1c(=O)n2CCCNCCNCCCn1c2c(c3ccccc3c1=O)C(=O)c1ccccc1-2"
assigned_category = 0

[[record]]
molecule = "CCN(CC)CCCC(Nc1c2ccc(Cl)cc2nc2ccc(OC)cc12)c1ccc(Cl)cc1 (centres undefined)"
assigned_category = 0

[[record]]
molecule = "Nc1c(C(=O)Nc2ccccc2)sc2nc3c(cc12)C(=O)CCC3"
assigned_category = 0

[[record]]
molecule = "CCOC(=O)c1cc(C(=O)c2ccc(OC)c(OC)c2)n2c1ccc1ccc3cccnc3c12"
assigned_category = 0

[[record]]
molecule = "Nc1nc(Cl)c2ncn(Cc3ccc(C45CC6CC(CC(C6)C4)C5)c(OCc4cc(F)c(F)cc4F)c3)c2n1"
assigned_category = 0

[[record]]
molecule = "O=C(CCCCN1CCN(CCCCC(=O)Nc2ccccc2C#C/C=C\\C#Cc2ccccc2C(F)(F)F)CC1)Nc1ccccc1C#C/C=C\\C#Cc1ccccc1C(F)(F)F"
assigned_category = 0


* * *

# Tested on: SW-620 colon
# ASSAY METHOD TEXT: NCI tumour cell line growth inhibition, 48 h
TGI for assorted molecules
RECORDED METRIC: TGI

[[record]]
molecule = "CCCCCCCCCC1CC(=O)OC23CCCC(=O)C12O3 (stereo unspecified)"
recorded_metric = "TGI"
experimental_result = "> 100 µM"

[[record]]
molecule = "COc1ccc(C2C(=O)c3ccc(OC)cc3OC2c2cccnc2)cc1 (stereo unspecified)"
recorded_metric = "TGI"
experimental_result = "> 100 µM"

[[record]]
molecule = "CC(C)Oc1cccc(N2C(CCc3c[nH]c4ccc(Br)cc34)=NS(=O)(=O)c3cnccc32)c1"
recorded_metric = "TGI"
experimental_result = "> 100 µM"

[[record]]
molecule = "[N-]=[N+]=CC(=O)C1CCN(c2ccccc2)C1=O (stereo unspecified)"
recorded_metric = "TGI"
experimental_result = "> 10 µM"

[[record]]
molecule = "Cc1cc(OC2OC(CO)C(O)C(O)C2O)ccc1O (stereo unspecified)"
recorded_metric = "TGI"
experimental_result = "> 100 µM"

[[record]]
molecule = "N#CC(C(=O)Nc1ccccc1)C1=C(Cl)C(=O)c2ccccc2C1=O (stereo unspecified)"
recorded_metric = "TGI"
experimental_result = "50 µM"


* * *

# Test system: SK-MEL-28 melanoma
# ASSAY METHOD TEXT: NCI tumour cell line growth inhibition, 48 h; in the data active = GI50 below about 0.43 µM; inactive = the rest
Outcomes: True = active, False = inactive

[[record]]
record_smiles = "O=C(O)c1ccccc1NCn1nc(-c2ccccc2O)oc1=S"
assay_system = "SK-MEL-28 melanoma"
assigned_category = "False"

[[record]]
record_smiles = "COC(=O)c1ccc(NC(N)=NCCC(C)(C)c2ccc(C(F)(F)F)cc2)nc1"
assay_system = "SK-MEL-28 melanoma"
assigned_category = "False"

[[record]]
record_smiles = "COc1ccc(-c2cnc(-c3ccncc3-c3cccc(OC)c3)o2)cc1"
assay_system = "SK-MEL-28 melanoma"
assigned_category = "True"

[[record]]
record_smiles = "O=C1c2ccccc2-c2c1c1ccccc1c(=O)n2CCCNCCNCCCn1c2c(c3ccccc3c1=O)C(=O)c1ccccc1-2"
assay_system = "SK-MEL-28 melanoma"
assigned_category = "False"

[[record]]
record_smiles = "O=C1c2cccc3c(N4CCOCC4)ccc(c23)C(=O)N1CCN1CCN(CCCCCN2CCN(CCN3C(=O)c4cccc5c(N6CCOCC6)ccc(c45)C3=O)CC2)CC1"
assay_system = "SK-MEL-28 melanoma"
assigned_category = "False"

[[record]]
record_smiles = "O=C(CI)NC(=O)NC(=O)NCc1ccccc1"
assay_system = "SK-MEL-28 melanoma"
assigned_category = "False"

[[record]]
record_smiles = "CCOC(=O)c1cn(C)c2c(OC)c3ccccc3c(OC)c2c1=O"
assay_system = "SK-MEL-28 melanoma"
assigned_category = "False"

[[record]]
record_smiles = "N#Cc1cc(F)cc(Oc2ccc(S(=O)(=O)C(F)F)c3c2CC(F)(F)[C@H]3O)c1"
assay_system = "SK-MEL-28 melanoma"
assigned_category = "False"

[[record]]
record_smiles = "CCc1ccc(Oc2c(-c3ccc(OCc4ccc(Cl)cc4)cc3O)nn(C)c2C(F)(F)F)cc1"
assay_system = "SK-MEL-28 melanoma"
assigned_category = "False"

[[record]]
record_smiles = "CC(=O)Nc1cccc(C#Cc2cncnc2Nc2ccc(OCc3cccc(F)c3)c(Cl)c2)c1"
assay_system = "SK-MEL-28 melanoma"
assigned_category = "False"

[[record]]
record_smiles = "Cn1cc(-c2ccc3ncc(-c4ccc(CC(=O)Nc5cc(C(C)(C)C)nn5C)cc4)cc3c2)cn1"
assay_system = "SK-MEL-28 melanoma"
assigned_category = "False"

[[record]]
record_smiles = "CCCCCCCCCCCCCC(=O)O[C@H]1CC[C@H](NC(=O)[C@H](OC)[C@H](O)[C@@H](O)[C@H](O)/C=C/C(C)C)C(=O)N(C)C1"
assay_system = "SK-MEL-28 melanoma"
assigned_category = "True"

[[record]]
record_smiles = "Cc1ccc2ccc3c4ccccc4ccc3c2c1"
assay_system = "SK-MEL-28 melanoma"
assigned_category = "False"

[[record]]
record_smiles = "COc1cc([C@@H]2c3cc4c(cc3[C@H](SC(=N)N)[C@H]3COC(=O)[C@H]23)OCO4)cc(OC)c1OC"
assay_system = "SK-MEL-28 melanoma"
assigned_category = "False"

[[record]]
record_smiles = "O=C(Nc1ccc(-n2cc(-c3ccncc3)c(-c3ccc(O)c(Cl)c3)n2)cc1)Nc1cc(C(F)(F)F)cc(C(F)(F)F)c1"
assay_system = "SK-MEL-28 melanoma"
assigned_category = "False"

[[record]]
record_smiles = "COC(=O)[C@]12CC[C@@H](C)[C@H](C)[C@@H]1C1=CC[C@@H]3[C@@]4(C)C(C=O)=C[C@@](C)(COS(C)(=O)=O)C4=CC[C@@]3(C)[C@]1(C)CC2"
assay_system = "SK-MEL-28 melanoma"
assigned_category = "True"

[[record]]
record_smiles = "CCOC(=O)c1cc(C(=O)c2ccc(OC)c(OC)c2)n2c1ccc1ccc3cccnc3c12"
assay_system = "SK-MEL-28 melanoma"
assigned_category = "False"


* * *

# System: RPMI-8226 leukemia
# ASSAY METHOD TEXT: NCI tumour cell line growth inhibition, 48 h
RECORDED METRIC: TGI

[[record]]
compound = "O=c1[nH]ncc2[nH]c3c(c12)CCc1ccccc1-3"
experimental_result = "70.7 µM"

[[record]]
compound = "CC(C)c1ccc(Cc2ccc(C(C)C)c(NC(=O)C(=O)Cc3cnc4ccccc4n3)c2C(C)C)c(C(C)C)c1NC(=O)C(=O)Cc1cnc2ccccc2n1"
experimental_result = "> 100 µM"

[[record]]
compound = "COc1cccc2c(=O)oc(-c3ccccc3C)nc12"
experimental_result = "> 100 µM"

[[record]]
compound = "N#Cc1cc(F)cc(Oc2ccc(S(=O)(=O)C(F)F)c3c2CC(F)(F)[C@H]3O)c1"
experimental_result = "96.4 µM"

[[record]]
compound = "CC(C)(NO)/C(=N\\O)c1ccccc1"
experimental_result = "> 10 µM"

[[record]]
compound = "Cc1ccc(S(=O)(=O)NC(=O)Nc2ccc(C(=O)O)cc2)cc1"
experimental_result = "> 100 µM"

[[record]]
compound = "CC(C)(C)C1=NO[C@H]2[C@@H](NC(=O)c3ccccc3)CC[C@@H]12"
experimental_result = "> 100 µM"

[[record]]
compound = "C1CN2CCO[SiH](O1)OCC2"
experimental_result = "> 100 µM"

[[record]]
compound = "CCNC(=S)N/N=C(/C)c1cccc(/C(C)=N\\NC(=S)NCC)n1"
experimental_result = "25.7 µM"

[[record]]
compound = "NC(=O)CSc1nc2ccccc2c(=O)n1N"
experimental_result = "> 100 µM"

[[record]]
compound = "COc1ccc(N(CC(=O)O)N=O)cc1"
experimental_result = "> 100 µM"

[[record]]
compound = "O=C1c2ccccc2-c2c1c1ccccc1c(=O)n2CCCNCCNCCCn1c2c(c3ccccc3c1=O)C(=O)c1ccccc1-2"
experimental_result = "0.221 µM"

[[record]]
compound = "CC(C)Oc1cccc(N2C(CCc3c[nH]c4ccc(Br)cc34)=NS(=O)(=O)c3cnccc32)c1"
experimental_result = "> 100 µM"

[[record]]
compound = "O=c1c2[nH]cnc2n(-c2ccccc2)c(=S)n1-c1ccccc1"
experimental_result = "> 100 µM"

[[record]]
compound = "O=c1[nH]nc(Nc2ccc(Cl)cc2)c2nnn(C3CCCCC3)c12"
experimental_result = "> 100 µM"

[[record]]
compound = "O=C([O-])c1ccc([I+]c2ccccc2)cc1"
experimental_result = "> 100 µM"

[[record]]
compound = "COC(=O)[C@]12CC[C@@H](C)[C@H](C)[C@@H]1C1=CC[C@@H]3[C@@]4(C)C(C=O)=C[C@@](C)(COS(C)(=O)=O)C4=CC[C@@]3(C)[C@]1(C)CC2"
experimental_result = "1.1 µM"

[[record]]
compound = "O=[N+]([O-])/C=C/c1cc(Cl)c(/C=C/[N+](=O)[O-])cc1Cl"
experimental_result = "3.99 µM"

[[record]]
compound = "CCCCCCC(=O)OC[n+]1ccc2c(C)c3[nH]c4ccc(OC)cc4c3c(C)c2c1"
experimental_result = "2.1 µM"

[[record]]
compound = "C[C@H]1CCC/C=C/[C@@H]2C[C@H](OC3OC(CO)C(O)C(O)C3O)C[C@H]2[C@H](O)/C=C/C(=O)O1 (stereo partly specified)"
experimental_result = "> 100 µM"

[[record]]
compound = "O=C1C=CC2(CCC23C=CC(=O)O3)O1 (stereo unspecified)"
experimental_result = "> 100 µM"

[[record]]
compound = "N=C(N)n1cc(/C=N/N=C(N)N)cn1"
experimental_result = "> 100 µM"

[[record]]
compound = "S=C(Sc1ccc(Cl)cc1)Sc1ccc(Cl)cc1"
experimental_result = "3 µM"

[[record]]
compound = "O=C(/C=C\\c1ccccc1)Oc1ccc(/C=C2\\CCC/C(=C\\c3ccc(OC(=O)/C=C\\c4ccccc4)cc3)C2=O)cc1"
experimental_result = "> 100 µM"

[[record]]
compound = "O=c1[nH]c2ccccc2cc1-c1nnc(Cc2ccccc2)o1"
experimental_result = "6.67 µM"

[[record]]
compound = "O=C(Nc1ccccc1C(=O)NC(=O)c1ccccc1NC(=O)c1ccccc1)c1ccccc1"
experimental_result = "8.23 µM"

[[record]]
compound = "O=C(Nc1nc(=S)[nH][nH]1)C(=O)C(c1cnc2ccc([N+](=O)[O-])cc2n1)[N+](=O)[O-] (stereo unspecified)"
experimental_result = "> 100 µM"

[[record]]
compound = "CCC12CCC[C@@]13C=C[C@H](O3)C(C)(C)C2=O (stereo partly specified)"
experimental_result = "> 100 µM"

[[record]]
compound = "C[n+]1cn(CC(=O)c2ccccc2)c(C(N)=O)c1N"
experimental_result = "> 100 µM"

[[record]]
compound = "OCC1OC(OC2(CO)OC(CO)C(O)C2O)C(O)C(O)C1O (stereo unspecified)"
experimental_result = "> 100 µM"

[[record]]
compound = "O=C1C2C(C(=O)N1Cc1ccccc1)N(Cc1ccccc1)C(=O)N2Cc1ccccc1 (stereo unspecified)"
experimental_result = "> 100 µM"

[[record]]
compound = "Cc1ccc(-n2c3nc(=O)n(C)c(=O)c-3nc3ccccc32)c(C)c1"
experimental_result = "42.4 µM"

[[record]]
compound = "Cc1ccccc1Nc1cc(O)c2c(=O)cc(-c3ccccc3)oc2c1"
experimental_result = "> 100 µM"

[[record]]
compound = "CC(C)C(NCc1c2ccccc2[n+](C)c2ccccc12)C(=O)O (stereo unspecified)"
experimental_result = "5.15 µM"

[[record]]
compound = "COc1cccc(-c2cc(=O)c3cc(N4CCN(C)CC4)ccc3[nH]2)c1"
experimental_result = "6.11 µM"

[[record]]
compound = "COc1ccc(O[C@H](CO)C[C@@H]2COC(C)(C)O2)cc1"
experimental_result = "> 100 µM"

[[record]]
compound = "Cc1ccc(C(=O)Nc2ccc(CP(=O)(O)O)cc2CP(=O)(O)O)cc1N"
experimental_result = "> 100 µM"

[[record]]
compound = "CC1=NC(=N)N=C(C)C1N=Nc1ccc2nc(C)[nH]c2c1 (stereo unspecified)"
experimental_result = "> 100 µM"

[[record]]
compound = "Oc1cn(-c2ccc(Cl)cc2)nc1-c1n[nH]c(=S)n1-c1ccc(F)cc1"
experimental_result = "> 100 µM"

[[record]]
compound = "CCOC(=O)C[C@@]12CCCN[C@]1(C)CCc1ccccc12"
experimental_result = "> 100 µM"

[[record]]
compound = "O=c1[nH]c2c(Nc3c4ccccc4nc4ccccc34)c([N+](=O)[O-])c(Nc3c4ccccc4nc4ccccc34)c([N+](=O)[O-])c2[nH]1"
experimental_result = "8.27 µM"


The reported numbers originate from PubChem BioAssay (NCI).
